These entries and their values trace back to ChEMBL document CHEMBL2346657.

Tested on: Escherichia coli
Assay: Antimicrobial activity against Escherichia coli MTCC 723 at 500 ug/ml after 24 hrs by cup plate method
Format: functional
Settings: MTCC 723, 24 h, read-out: IZ
Criterion: zone of inhibition at 500 µg/mL meeting or surpassing 10 mm. Met: Condition met. Not met: Condition not met.

hey, is zone of inhibition at 500 µg/mL for this one >= 10 mm? Cc1ccc2[nH]c(-c3ccccc3)c(C3C=C(c4ccc(Cl)cc4)Oc4nc5oc(=O)c(C#N)c(N)c5c(N)c43)c2c1 (configuration not stated)
Condition met

Is it the case that O=c1[nH]cnc2c1C(c1c(-c3ccccc3)[nH]c3ccccc13)C=C(c1ccccc1)O2 (configuration not stated) has zone of inhibition at 500 µg/mL reaching or exceeding 10 mm?
Condition not met

Could you please find out whether N#Cc1c(N)c2c(N)c3c(nc2oc1=O)OC(c1ccc(Cl)cc1)=CC3c1c(-c2ccccc2)[nH]c2ccc(Cl)cc12 (configuration not stated) has zone of inhibition at 500 µg/mL that meets 10 mm or exceeds it?
Condition met

Record Cc1ccc2[nH]c(-c3ccccc3)c(C3C=C(c4ccc(Cl)cc4)Oc4nc[nH]c(=O)c43)c2c1 (configuration not stated) ; criterion: zone of inhibition at 500 µg/mL no lower than 10 mm. Met?
Condition not met

Say whether Cc1ccc(C2=CC(c3c(-c4ccccc4)[nH]c4ccc(Cl)cc34)c3c(N)n[nH]c3O2)cc1 (configuration not stated) shows zone of inhibition at 500 µg/mL of 10 mm or more.
Condition not met

Is zone of inhibition at 500 µg/mL at least 10 mm? Consider Cc1ccc2[nH]c(-c3ccccc3)c(C3C=C(c4ccccc4)Oc4[nH]nc(N)c43)c2c1 (configuration not stated)
Condition not met

Does Cc1ccc2[nH]c(-c3ccccc3)c(C3C=C(c4ccccc4)OC(N)=C3C#N)c2c1 (configuration not stated) have a reported zone of inhibition at 500 µg/mL of at least 10 mm?
Condition not met

Identify whether the reported zone of inhibition at 500 µg/mL of the following compound is 10 mm or greater: N#Cc1c(N)c2c(N)c3c(nc2oc1=O)OC(c1ccc(Cl)cc1)=CC3c1c(-c2ccccc2)[nH]c2ccccc12 (configuration not stated)
Condition not met

Quick check, zone of inhibition at 500 µg/mL >= 10 mm? Cc1ccc(C2=CC(c3c(-c4ccccc4)[nH]c4ccccc34)c3c(nc4oc(=O)c(C#N)c(N)c4c3N)O2)cc1 (configuration not stated)
Condition not met
